assayText: Cytotoxicity against monkey Vero cells assessed as cell growth inhibition by aqueous non-Radioactivity Cell proliferation Assay
Assay type: cell-based
testSettings: chlorocebus sabaeus, read-out: TC50 (the source's name)
parameterMeasured: CC50 (µM)
Quick note: give the figure in µM, leave out the unit.

CC/C=C/Cn1c(=O)sc2c(=O)[nH]c(N)nc21
75

Input CC(C)=CCn1c(=O)sc2c(=O)[nH]c(N)nc21 . Output CC50: 75

====

assayText: Cytotoxicity against human KB cells assessed as cell growth inhibition by crystal violet staining based spectrophotometry
testSettings: read-out: TC50 (the source's name)
Examples of compounds with documented CC50 follow.
Kindly provide the numeric value in µM only, without the unit symbol.

CC/C=C/Cn1c(=O)sc2c(=O)[nH]c(N)nc21
75

Now consider the entry below.
GET /value?item= CC(C)=CCn1c(=O)sc2c(=O)[nH]c(N)nc21 &field=CC50 returns 75

Data provenance: ChEMBL document CHEMBL3774349
